- tgt: Uracil-DNA glycosylase (Human herpesvirus 1)
- test-protocol: Inhibitory potency against HSV-1 Uracil-DNA glycosylase
measure-name: IC50 (µM)

// known answers, use as guide
CCCCCCCCCCc1ccc(Nc2cc(=O)[nH]c(=O)[nH]2)cc1: 35
CCCCCCCCc1ccc(Nc2cc(=O)[nH]c(=O)n2CCOC)cc1: 15
CCCCCCCCc1ccc(Nc2cc(=O)[nH]c(=O)[nH]2)cc1: 8

A = CCCCCCCCc1ccc(Oc2cc(=O)[nH]c(=O)[nH]2)cc1
B = CCCCCCCCOc1ccc(Nc2cc(=O)[nH]c(=O)[nH]2)cc1
C = CCCCCCCCc1ccc(Nc2cc(=O)[nH]c(=O)n2CCO)cc1
Query string: // ascending sort on recorded IC50 Please list each label once, in the requested order.
Result string: C, B, A
(C: 10 µM, B: 25 µM, A: 150 µM)
